system: NCI/ADR-RES (doxorubicin-resistant ovarian cancer cell line); test: MTT cell growth inhibition, NCI/ADR-RES; format: cell-based; conditions: NCI/ADR-RES, 48 h incubation, MTT; inhibition at highest concentration tested (100 μM)
Square brackets hold non-standard residues; d marks the D form. Peptide text beside a SMILES is read from it. Pra = C#CC[C@H](N)C(=O)O
observation_type: E max (% inhibition)
Numbers only, in % inhibition.

Please review the following examples before continuing.
{"molecule": "CCCCCCCCCCn1cc(C[C@@H]2NC(=O)[C@@H](Cc3c[nH]c4ccccc34)NC(=O)[C@H](CO)NC(=O)[C@@H](CCCCN)NC(=O)[C@H](CO)NC(=O)[C@@H](CS)NC(=O)[C@H](CCC(N)=O)NC(=O)[C@@H](CCCCN)NC2=O)nn1 [CP1T10]", "system": "NCI/ADR-RES (doxorubicin-resistant ovarian cancer cell line)", "endpoint_value": 70}
{"molecule": "CCCCCCCCCCCCCCn1cc(C[C@@H]2NC(=O)[C@@H](Cc3c[nH]c4ccccc34)NC(=O)[C@H](CO)NC(=O)[C@@H](CCCCN)NC(=O)[C@H](CO)NC(=O)[C@@H](CSC3CC(=O)N(CCCCCC(=O)NN=C(CO)[C@]4(O)Cc5c(O)c6c(c(O)c5[C@@H](O[C@H]5C[C@H](N)[C@H](O)[C@H](C)O5)C4)C(=O)c4c(OC)cccc4C6=O)C3=O)NC(=O)[C@H](CCC(N)=O)NC(=O)[C@@H](CCCCN)NC2=O)nn1 (stereo partly shown) [CP1T14-DOX]", "system": "NCI/ADR-RES (doxorubicin-resistant ovarian cancer cell line)", "endpoint_value": 44}
{"molecule": "C#CC[C@@H]1NC(=O)[C@@H](Cc2c[nH]c3ccccc23)NC(=O)[C@H](CO)NC(=O)[C@@H](CCCCN)NC(=O)[C@H](CO)NC(=O)[C@@H](CS)NC(=O)[C@H](CCC(N)=O)NC(=O)[C@@H](CCCCN)NC1=O [CP1] (cyclo([Pra][dK]Q[dC]S[dK]S[dW]))", "system": "NCI/ADR-RES (doxorubicin-resistant ovarian cancer cell line)", "endpoint_value": 90}

Noted E max (% inhibition) for COc1cccc2c1C(=O)c1c(O)c3c(c(O)c1C2=O)C[C@@](O)(C(=O)CO)C[C@@H]3O[C@H]1C[C@H](N)[C@H](O)[C@H](C)O1 [DOX, doxorubicin] , tested on NCI/ADR-RES (doxorubicin-resistant ovarian cancer cell line): 36
